Molecular target: HIV-1 integrase (Human immunodeficiency virus type 1 group M subtype B, UniProt P04585)
Assay: HIV-1 integrase assay
Format: biochemical
Settings: read-out: IC50, HIV-1 integrase assay
pIC50: −log10 of the molar value.
value kind: pIC50

pIC50 lookup needed for CC1(C)CC(NC(=O)C(=O)Nc2ccc(Cl)cc2)CC(C)(C)N1 [NBD-556] , thanks. < 3.70

* * *

System: laboratory-adapted HIV-1 strains
Assay: microbe, parasite or virus in culture
Assay type: cell-based
Conditions: laboratory strain RF, subtype B, MT-2, R5X4
value kind: pIC50
The quantity pIC50 is defined as the negative base-10 logarithm of the molar concentration.

Entry `CC1(C)CC(NC(=O)C(=O)Nc2ccc(Cl)cc2)CC(C)(C)N1` : reported pIC50 = ? 4.73

Value source: paper PMC4676410
